target: purified DHFR of strain 157/4696 of Staphylococcus aureus (Staphylococcus aureus); experiment: biochemical
Sequence (P13955 whole entry): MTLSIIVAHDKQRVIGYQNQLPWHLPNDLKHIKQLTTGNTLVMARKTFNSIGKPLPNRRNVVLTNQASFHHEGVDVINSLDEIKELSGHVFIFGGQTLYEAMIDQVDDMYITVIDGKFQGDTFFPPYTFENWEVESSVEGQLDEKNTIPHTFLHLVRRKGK
measure: pIC50
Please report pIC50 as the negative decimal logarithm of the molar concentration, giving only the number.

Solved entries (count: 5):
CCOc1cc(Cc2cnc(N)nc2N)cc(OS(=O)(=O)N(C)CC)c1-c1ccc(N)c(F)c1 [Example 28-b] ... 6.49
CCOc1cc(Cc2cnc(N)nc2N)cc(OS(=O)(=O)C2CC2)c1-c1ccc(CN2CCOCC2)c(N)c1 [Example 34-e] ... 6.85
CCOc1cc(Cc2cnc(N)nc2N)cc(OCC2(CC#N)CC2)c1-c1ccc(OC)cc1 [Example 09-b] ... 5.72
CCOc1cc(Cc2cnc(N)nc2N)cc(OS(=O)(=O)c2cccs2)c1-c1cccc(N)c1 [Example 14-f] ... 6.49
CCOc1cc(Cc2cnc(N)nc2N)cc(OCCC2CC2)c1-c1ccc(O)cc1 [Example 08-l] ... 5.66

Please report the recorded pIC50 for CCOc1cc(Cc2cnc(N)nc2N)cc(OS(=O)(=O)N(C)C)c1-c1ccccc1 [Example 43-b] .
6.59

Please report the recorded pIC50 for CCOc1cc(Cc2cnc(N)nc2N)cc(OCC)c1-c1ccc(NS(C)(=O)=O)cc1 [Example 04-b] .
5.77

Please report the recorded pIC50 for CCOc1cc(Cc2cnc(N)nc2N)cc(OS(=O)(=O)C(C)CC)c1-c1ccc(OC)c(N)c1 (centres unmarked) [Example 35-d] .
7.02

###

tested on: Streptococcus pneumoniae 1/1; assay: MIC against Streptococcus pneumoniae 1/1; assay type: cell-based; conditions: Table 2; Streptococcus pneumoniae 1/1, trimethoprim- and penicillin-resistant, serotype 6; clinical isolate; read-out: MIC Sp1/1
measure: MIC (µg/mL)
Output spec: scalar in µg/mL, unitless text.

CCOc1cc(Cc2cnc(N)nc2N)cc(OCC)c1-c1ccco1 ... 4
CCOc1cc(Cc2cnc(N)nc2N)cc(OCC(C)C)c1-c1ccc2c(c1)OCO2 ... 4
CCOc1cc(Cc2cnc(N)nc2N)cc(OS(=O)(=O)CC(C)C)c1-c1cccc(N)c1 ... 0.5
CCOc1cc(Cc2cnc(N)nc2N)cc(OS(=O)(=O)N(C)C)c1-c1cccc(N)c1 ... 1
CCOc1cc(Cc2cnc(N)nc2N)cc(OS(=O)(=O)N(C)C)c1-c1ccc(N)c(C#N)c1 ... 2
CCOc1cc(Cc2cnc(N)nc2N)cc(OS(=O)(=O)N(C)C2CC2)c1-c1ccc(O)cc1 ... 1

Please report the recorded MIC for CCOc1cc(Cc2cnc(N)nc2N)cc(OCC2CC2)c1-c1ccc(OCCO)cc1 .
4

Please report the recorded MIC for CCOc1cc(Cc2cnc(N)nc2N)cc(OCC)c1-c1ccc(CO)s1 .
2

Please report the recorded MIC for CCOc1cc(Cc2cnc(N)nc2N)cc(OC2CCCC2COC)c1-c1ccc(O)cc1 (racemic) .
2

Please report the recorded MIC for CCOc1cc(Cc2cnc(N)nc2N)cc(OS(=O)(=O)CC)c1-c1ccc(OC)cc1 .
2

Please report the recorded MIC for CCOc1cc(Cc2cnc(N)nc2N)cc(OS(=O)(=O)N(C)C2CC2)c1-c1cccc(N)c1 .
1

Please report the recorded MIC for CCOc1cc(Cc2cnc(N)nc2N)cc(OCCC2CCCCO2)c1-c1cccc(N)c1 (racemic) .
2

Please report the recorded MIC for CCOc1cc(Cc2cnc(N)nc2N)cc(OCC)c1-c1ccc(OCC(N)=O)cc1 .
2

Please report the recorded MIC for CCOc1cc(Cc2cnc(N)nc2N)cc(OCC)c1-c1cccc(N(C)C)c1 .
4

Please report the recorded MIC for CCOc1cc(Cc2cnc(N)nc2N)cc(OS(=O)(=O)N(C)C)c1-c1ccc(NC)cc1 .
1

Please report the recorded MIC for CCOc1cc(Cc2cnc(N)nc2N)cc(OS(=O)(=O)C2CCOCC2)c1-c1ccc(N)c(F)c1 .
0.5

The values you see were collected from patent US6821980B1.
